Biological target: human kidney renin (Homo sapiens, UniProt P00797)
Construct: human kidney renin purified as described in Bangham
Sequence (P00797 67-406): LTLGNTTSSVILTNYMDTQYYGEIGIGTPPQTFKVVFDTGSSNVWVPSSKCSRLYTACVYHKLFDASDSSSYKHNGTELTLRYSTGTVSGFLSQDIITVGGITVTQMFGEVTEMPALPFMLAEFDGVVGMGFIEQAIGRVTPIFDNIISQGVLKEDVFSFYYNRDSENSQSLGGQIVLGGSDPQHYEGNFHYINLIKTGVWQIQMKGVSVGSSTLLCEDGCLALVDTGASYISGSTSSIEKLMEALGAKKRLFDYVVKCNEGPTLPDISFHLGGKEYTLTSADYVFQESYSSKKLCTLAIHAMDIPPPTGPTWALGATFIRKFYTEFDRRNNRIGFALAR
Assay: Human renin inhibition
Details: purified human kidney renin; dissociation constant of the inhibited enzyme-inhibitor complex
pKi: −log10 of the molar value.
Recorded pKi by entry

{"compound": "CC(C)C[C@H](NC(=O)C[C@H](O)[C@H](CC(C)C)NC(=O)[C@H](Cc1c[nH]cn1)NC(=O)C(CCCCc1ccccc1)Cc1ccccc1)C(=O)NCc1ccccc1 (stereo partly drawn)", "pKi": 7.77}
{"compound": "CC(C)C[C@H](NC(=O)C[C@H](O)[C@H](Cc1ccccc1)NC(=O)[C@H](Cc1c[nH]cn1)NC(=O)COc1ccccc1)C(=O)NCc1ccccc1 [POA--His--AHPPA--Leu--benzylamide]", "pKi": 8.00}
{"compound": "CC(C)C[C@H](NC(=O)C[C@H](O)[C@H](CC(C)C)NC(=O)[C@H](Cc1c[nH]cn1)NC(=O)C(Cc1ccccc1)c1ccccc1)C(=O)NCc1ccccc1 (stereo partly drawn)", "pKi": 6.05}
{"compound": "CC(C)C[C@H](NC(=O)C[C@H](O)[C@H](CC(C)C)NC(=O)[C@H](Cc1c[nH]cn1)NC(=O)C(Cc1ccccc1)Cc1ccccc1)C(=O)NCc1ccccc1", "pKi": 6.08}
{"compound": "CC(C)C[C@H](NC(=O)C[C@H](O)[C@H](Cc1ccccc1)NC(=O)[C@H](Cc1c[nH]cn1)NC(=O)C(Cc1ccccc1)Cc1ccccc1)C(=O)NCc1ccccc1", "pKi": 7.47}
{"compound": "CC(C)C[C@H](NC(=O)C[C@H](O)[C@H](CC(C)C)NC(=O)[C@H](Cc1c[nH]cn1)NC(=O)C(CCCc1ccccc1)Cc1ccccc1)C(=O)NCc1ccccc1 (stereo partly drawn)", "pKi": 7.01}

---

pIC50: −log10 of the molar value. Non-standard residues stand in square brackets, D forms with d. Residues, ends and D or L forms follow the SMILES beside them. *: point of attachment. Sta = CC(C)C[C@H](N)[C@@H](O)CC(=O)O; Phenoxyacetyl = O=C(COc1ccccc1)*
Measured pIC50 on hog kidney renin (Sus scrofa, UniProt A0A287APG1) follows.
Sequence (A0A287APG1 67-407): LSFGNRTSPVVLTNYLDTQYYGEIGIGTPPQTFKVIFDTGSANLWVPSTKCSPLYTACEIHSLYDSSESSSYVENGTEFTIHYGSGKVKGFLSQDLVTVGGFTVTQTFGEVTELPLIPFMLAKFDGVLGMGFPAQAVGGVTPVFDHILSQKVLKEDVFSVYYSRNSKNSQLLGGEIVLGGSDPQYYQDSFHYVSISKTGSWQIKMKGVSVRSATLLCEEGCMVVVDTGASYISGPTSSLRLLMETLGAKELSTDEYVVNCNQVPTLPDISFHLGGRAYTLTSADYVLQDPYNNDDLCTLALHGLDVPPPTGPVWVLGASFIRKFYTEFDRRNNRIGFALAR

{"molecule": "COC(=O)[C@H](Cc1ccccc1)NC(=O)[C@H](CC(C)C)NC(=O)C[C@H](O)[C@H](CC(C)C)NC(=O)[C@H](Cc1c[nH]cn1)NC(=O)COc1ccccc1 [POA--His--Sta--Leu--Phe--methyl ester, POA^2 -His-Sta-Leu-Phe-methyl ester] (Phenoxyacetyl-H[Sta]LF-OMe)", "pIC50": 5.48}
{"molecule": "CC[C@H](C)[C@H](NC(=O)C[C@H](O)[C@H](CC1CCCCC1)NC(=O)[C@H](Cc1c[nH]cn1)NC(=O)COc1ccccc1)C(=O)NCc1ccccc1 [POA--His--ACHPA--Ile--benzylamide, POA-His-ACHPA-Ile-benzylamide]", "pIC50": 6.54}
{"molecule": "CC[C@H](C)[C@H](NC(=O)C[C@H](O)[C@H](CC1CCCCC1)NC(=O)[C@H](Cc1c[nH]cn1)NC(=O)COc1ccccc1)C(=O)NCc1ccccn1 [POA-His-ACHPA-Ile-2-pyridylmethylamide]", "pIC50": 5.85}

---

target: human kidney renin (Homo sapiens, UniProt P00797); construct: human kidney renin purified as described in Bangham; assay: Human renin inhibition; settings: purified human kidney renin; dissociation constant of the inhibited enzyme-inhibitor complex
pKi: −log10 of the molar value.

{"compound": "CC(C)C[C@H](NC(=O)C[C@H](O)[C@H](Cc1ccccc1)NC(=O)[C@H](Cc1c[nH]cn1)NC(=O)C(CCCc1ccccc1)Cc1ccccc1)C(=O)NCc1ccccc1 (stereo partly drawn)", "pKi": 7.64}
{"compound": "CC(C)C[C@H](NC(=O)C[C@H](O)[C@H](Cc1ccccc1)NC(=O)[C@H](Cc1c[nH]cn1)NC(=O)CCc1ccccc1)C(=O)NCc1ccccc1", "pKi": 7.15}
{"compound": "CC(C)C[C@H](NC(=O)C[C@H](O)[C@H](CC1CCCCC1)NC(=O)[C@H](Cc1c[nH]cn1)NC(=O)COc1ccccc1)C(=O)N[C@@H](Cc1ccccc1)C(N)=O [POA--His--ACHPA--Leu--Phe--amide, POA-His-ACHPA^4 -Leu-Phe-amide]", "pKi": 8.96}

---

Measured pIC50 on hog kidney renin (Sus scrofa) follows.
pIC50: −log10 of the molar value. Non-standard residues stand in square brackets, D forms with d. Residues, ends and D or L forms follow the SMILES beside them. *: point of attachment. Sta = CC(C)C[C@H](N)[C@@H](O)CC(=O)O; Phenoxyacetyl = O=C(COc1ccccc1)*; Boc = CC(C)(C)OC(=O)*

{"molecule": "CC(C)C[C@H](NC(=O)C[C@H](O)[C@H](CC1CCCCC1)NC(=O)[C@H](Cc1c[nH]cn1)NC(=O)COc1ccccc1)C(=O)N[C@@H](Cc1ccccc1)C(N)=O [POA--His--ACHPA--Leu--Phe--amide, POA-His-ACHPA^4 -Leu-Phe-amide]", "pIC50": 6.29}
{"molecule": "CC(C)C[C@H](NC(=O)C[C@H](O)[C@H](CC(C)C)NC(=O)[C@H](Cc1c[nH]cn1)NC(=O)C(C)Cc1ccccc1)C(=O)NCc1ccccc1 (single isomer, unassigned) [2-methyl-3-phenylpropionyl-His--Sta--Leu--benzylamide (\"B\" Isomer)]", "pIC50": 6.03}
{"molecule": "CCC(Cc1ccccc1)C(=O)N[C@@H](Cc1c[nH]cn1)C(=O)N[C@@H](CC(C)C)[C@@H](O)CC(=O)N[C@@H](CC(C)C)C(=O)NCc1ccccc1 (some centres unmarked)", "pIC50": 5.85}
{"molecule": "CC(C)C[C@H](NC(=O)C[C@H](O)[C@H](CC(C)C)NC(=O)[C@H](Cc1c[nH]cn1)NC(=O)COc1ccccc1)C(=O)N[C@@H](Cc1ccccc1)C(N)=O [POA--His--Sta--Leu--Phe--amide, POA-His-Sta-Leu-Phe-amide] (Phenoxyacetyl-H[Sta]LF-NH2)", "pIC50": 5.12}
{"molecule": "CC(C)C[C@H](NC(=O)[C@H](Cc1c[nH]cn1)NC(=O)COc1ccccc1)[C@@H](O)CC(=O)N[C@@H](Cc1ccccc1)C(=O)N[C@@H](Cc1ccccc1)C(N)=O [POA--His--Sta--Phe--Phe--amide, POA-His-Sta-Phe-Phe-amide] (Phenoxyacetyl-H[Sta]FF-NH2)", "pIC50": 4.40}
{"molecule": "CC(C)C[C@H](NC(=O)C[C@H](O)[C@H](CC(C)C)NC(=O)[C@H](Cc1c[nH]cn1)NC(=O)OC(C)(C)C)C(=O)N[C@@H](Cc1ccccc1)C(N)=O [BOC--His--Sta--Leu--Phe--amide, BOC^1 -His-Sta-Leu-Phe-amide] (Boc-H[Sta]LF-NH2)", "pIC50": 3.40}
{"molecule": "CC(C)C[C@H](NC(=O)C[C@H](O)[C@H](Cc1ccccc1)NC(=O)[C@H](Cc1c[nH]cn1)NC(=O)COc1ccccc1)C(=O)NCc1ccccc1 [POA--His--AHPPA--Leu--benzylamide]", "pIC50": 7.70}
{"molecule": "COC(=O)[C@H](Cc1ccccc1)NC(=O)[C@H](CC(C)C)NC(=O)C[C@H](O)[C@H](CC(C)C)NC(=O)[C@@H](N)Cc1c[nH]cn1 [His--Sta--Leu--Phe--methyl ester, His-Sta-Leu-Phe-methyl ester] (H-H[Sta]LF-OMe)", "pIC50": 4.85}
